Measured on: NEK7 (Homo sapiens (Human), UniProt Q8TDX7+Q96SW2)
Sequence (Q8TDX7 whole entry): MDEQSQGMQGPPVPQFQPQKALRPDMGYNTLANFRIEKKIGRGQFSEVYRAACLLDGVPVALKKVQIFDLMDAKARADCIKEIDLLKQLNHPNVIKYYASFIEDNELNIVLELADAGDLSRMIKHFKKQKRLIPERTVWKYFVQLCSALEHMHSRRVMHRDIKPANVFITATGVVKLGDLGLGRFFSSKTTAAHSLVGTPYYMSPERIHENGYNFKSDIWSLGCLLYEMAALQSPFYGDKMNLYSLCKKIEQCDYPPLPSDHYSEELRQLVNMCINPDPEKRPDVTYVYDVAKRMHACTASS
Sequence (Q96SW2 whole entry): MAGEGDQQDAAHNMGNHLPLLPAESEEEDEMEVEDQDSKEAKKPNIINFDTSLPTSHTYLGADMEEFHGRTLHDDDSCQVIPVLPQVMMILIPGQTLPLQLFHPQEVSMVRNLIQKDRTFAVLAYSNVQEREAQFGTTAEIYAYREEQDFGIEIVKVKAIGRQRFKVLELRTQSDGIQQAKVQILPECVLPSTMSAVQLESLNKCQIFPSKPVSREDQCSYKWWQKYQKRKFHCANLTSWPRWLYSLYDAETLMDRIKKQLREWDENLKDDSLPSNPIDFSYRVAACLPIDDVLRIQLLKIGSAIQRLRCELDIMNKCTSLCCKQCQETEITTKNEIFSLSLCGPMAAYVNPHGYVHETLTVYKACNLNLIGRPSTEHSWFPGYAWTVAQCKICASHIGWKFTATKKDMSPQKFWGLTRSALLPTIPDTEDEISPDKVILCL
Sequence (Q16531 2-1140 partner): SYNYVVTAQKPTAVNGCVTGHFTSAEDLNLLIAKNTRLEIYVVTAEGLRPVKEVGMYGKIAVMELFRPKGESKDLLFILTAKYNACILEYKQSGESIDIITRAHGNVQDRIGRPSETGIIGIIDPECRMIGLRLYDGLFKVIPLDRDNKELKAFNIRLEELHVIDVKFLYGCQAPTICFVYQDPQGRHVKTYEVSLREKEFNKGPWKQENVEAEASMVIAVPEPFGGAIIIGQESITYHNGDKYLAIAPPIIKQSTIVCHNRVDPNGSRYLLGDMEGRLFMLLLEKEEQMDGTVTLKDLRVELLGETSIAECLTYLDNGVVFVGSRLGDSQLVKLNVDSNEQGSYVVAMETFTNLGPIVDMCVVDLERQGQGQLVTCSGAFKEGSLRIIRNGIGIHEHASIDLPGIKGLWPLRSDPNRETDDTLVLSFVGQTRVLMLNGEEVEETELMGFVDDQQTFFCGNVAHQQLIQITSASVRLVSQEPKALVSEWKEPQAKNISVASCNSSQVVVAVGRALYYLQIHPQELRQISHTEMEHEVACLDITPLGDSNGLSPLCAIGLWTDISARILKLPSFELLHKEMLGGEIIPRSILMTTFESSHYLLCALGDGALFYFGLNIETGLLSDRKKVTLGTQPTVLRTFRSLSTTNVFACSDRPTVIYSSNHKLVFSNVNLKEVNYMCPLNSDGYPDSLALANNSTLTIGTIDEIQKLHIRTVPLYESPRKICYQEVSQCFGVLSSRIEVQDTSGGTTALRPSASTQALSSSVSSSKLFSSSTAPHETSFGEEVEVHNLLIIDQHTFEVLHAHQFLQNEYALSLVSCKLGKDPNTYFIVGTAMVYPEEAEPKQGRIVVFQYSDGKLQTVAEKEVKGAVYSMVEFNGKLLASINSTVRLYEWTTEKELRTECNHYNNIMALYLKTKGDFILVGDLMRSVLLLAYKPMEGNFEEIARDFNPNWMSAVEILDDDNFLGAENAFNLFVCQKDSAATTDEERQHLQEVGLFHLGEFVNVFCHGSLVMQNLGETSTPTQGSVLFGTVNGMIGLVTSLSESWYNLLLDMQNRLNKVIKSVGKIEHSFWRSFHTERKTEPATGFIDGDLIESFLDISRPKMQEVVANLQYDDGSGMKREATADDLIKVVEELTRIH
Experiment: NEK7 NanoBiT degradation assay in Cal51 NEK7 NanoBiT cell line
Type: cell-based
Test context: Cal51 NEK7 NanoBiT cells, 24 hours; read-out: NEK7 NanoBiT DC50
Observation type: DC50
# do not omit the unit; it follows the number

Below are worked cases with known answers.
Give recorded DC50. CC(C)(C(=O)NCc1cc(Cl)c(C2CCC(=O)NC2=O)c(Cl)c1)c1ccc(O)c(F)c1 (stereo not shown) 1 nM

Give recorded DC50. CC(C)(C(=O)NCc1cc(Cl)c(C2CCC(=O)NC2=O)c(Cl)c1)c1ccc(F)cn1 (stereo not shown) 4 nM

Give recorded DC50. Cc1nc(C(C)(C)C(=O)NCc2cc(Cl)c(C3CCC(=O)NC3=O)c(Cl)c2)oc1C (stereo not shown) 6 nM

Next:
Give recorded DC50. CC(C)(C(=O)NCc1cc(Cl)c(C2CCC(=O)NC2=O)c(Cl)c1)c1ncc(OC(F)(F)F)cn1 (stereo not shown) 12 nM
